# Tested on: Trypanosoma brucei
# PROTOCOL DESCRIPTION: Antitrypanosomal activity against Trypanosoma brucei S427 by microdilution method
# Type: functional, organism-based
pIC50: −log10 of the molar value.
MEASUREMENT TYPE: pIC50

Below are worked cases with known answers.
| MOLECULE | TESTED TARGET | DATA VALUE |
| --- | --- | --- |
| CC(=O)O[C@H]1CC[C@]2(C)[C@H]3CC=C4[C@@H]5[C@@H](C)[C@H](C)CC[C@]5(C(=O)O)CC[C@@]4(C)[C@]3(C)CC[C@H]2C1(C)C | Trypanosoma brucei | 4.77 |
| C[C@H]1CC[C@]2(C(=O)O)CC[C@]3(C)C(=CC[C@@H]4[C@@]5(C)CC[C@H](O[C@@H]6OC[C@H](O)[C@H](O)[C@H]6O)C(CO)(CO)[C@@H]5CC[C@]43C)[C@@H]2[C@]1(C)O | Trypanosoma brucei | 4.80 |
| C[C@H]1[C@H](C)CC[C@]2(C(=O)O[C@@H]3O[C@H](CO[C@@H]4O[C@H](CO)[C@@H](O)[C@H](O)[C@H]4O)[C@@H](O)[C@H](O)[C@H]3O)CC[C@]3(C)C(=CC[C@@H]4[C@@]5(C)CC[C@H](O[C@@H]6OC[C@H](O)[C@H](O[C@@H]7O[C@H](CO)[C@@H](O)[C@H](O)[C@H]7O)[C@H]6O)C(C)(C)[C@@H]5CC[C@]43C)[C@H]12 | Trypanosoma brucei | < 4.49 |

The molecule identified as "C[C@H]1[C@H](C)CC[C@]2(C(=O)O[C@@H]3O[C@H](CO[C@@H]4O[C@H](CO)[C@@H](O)[C@H](O)[C@H]4O)[C@@H](O)[C@H](O)[C@H]3O)CC[C@]3(C)C(=CC[C@@H]4[C@@]5(C)CC[C@H](O[C@@H]6OC[C@H](O)[C@H](O[C@@H]7O[C@H](CO)[C@@H](O)[C@H](O)[C@H]7O)[C@H]6O[C@@H]6O[C@@H](C)[C@H](O)[C@@H](O)[C@H]6O)C(C)(C)[C@@H]5CC[C@]43C)[C@H]12" registered its pIC50 at < 4.49

Entry C[C@@H]1CC[C@]2(C(=O)O[C@@H]3O[C@H](CO)[C@@H](O)[C@H](O)[C@H]3O)CC[C@]3(C)C(=CC[C@@H]4[C@@]5(C)CC[C@H](O[C@@H]6OC[C@H](O)[C@H](O[C@@H]7O[C@H](CO)[C@@H](O)[C@H](O)[C@H]7O)[C@H]6O)C(C)(C)[C@@H]5CC[C@]43C)[C@@H]2[C@]1(C)O [ILEKUDINOSIDE E] — recorded pIC50 = < 4.49

Per the records, this molecule ( C[C@@H]1CC[C@]2(C(=O)O[C@@H]3O[C@H](CO)[C@@H](O)[C@H](O)[C@H]3O)CC[C@]3(C)C(=CC[C@@H]4[C@@]5(C)CC[C@H](O)[C@@](C)(CO)[C@@H]5CC[C@]43C)[C@@H]2[C@]1(C)O [PEDUNCULOSIDE] ) has pIC50 equal to < 4.49
